Assay: amyloid nucleation score (Sup35N fusion, yeast selection) (log enrichment); library NNK2; higher = more nucleation; inactive = no reads after selection;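 also: zero at mode of non-aggregating sequences after 7 days selection at 30°C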
parameterMeasured: amyloid nucleation score
Number only, please.

Worked examples follow.
# substance, readoutNumber
rows = [
    ("FWHIEMCENSTYHVSLSTGC", 4.39),
    ("EIVLFFCPVVKCME", 3.08),
    ("PGDMLSGAFHMCISNCVTSC", 0.319),
    ("LSVRPASNELCAHVVVRFEC", 3.66),
    ("SFFNRESGIWWRGSSWFVLV", -0.711),
]

-- ask Form field: reported amyloid nucleation score of KLRPNLCKHYMTFMETSS
-- reply 0.175

-- ask Form field: reported amyloid nucleation score of PNSPRMNESLSFIFPGDVSG
-- reply -0.474

-- ask Form field: reported amyloid nucleation score of YVYDISGRITVNPITYKCQL
-- reply -1.16

-- ask Form field: reported amyloid nucleation score of STLKPVNPGKVRH
-- reply 0.445

-- ask Form field: reported amyloid nucleation score of EWCQKGSAEIRASRCQ
-- reply 0.58

----------
Assay: amyloid nucleation score (Sup35N fusion, yeast selection) (log enrichment); library NNK2; higher = more nucleation; inactive = no reads after selection
parameterMeasured: amyloid nucleation score
Number only, please.

Worked examples follow.
# substance, readoutNumber
data = [
    ("FMEGTRHCGKYFSC", 0.938),
    ("QFPTCVHKPSCWDF", 0.291),
    ("LIEFAFVQFCNIVIEP", 7.1),
    ("SRAGECSSWGHIYGLCVDLR", -0.897),
    ("RGNMTLIETALAIVQSFSNH", 9.06),
    ("YTMWGWLAAMVREMETLGSK", -0.284),
]

// switching to the query substance
-- ask Form field: reported amyloid nucleation score of VFGPPWCLGHSHWILFYVGC
-- reply -0.519

----------
Assay: amyloid nucleation score (Sup35N fusion, yeast selection) (log enrichment); library NNK1; higher = more nucleation; inactive = no reads after selection
Label scheme for amyloid nucleation score: Low (below -0.006), Medium (-0.006 to below 0.6), High (0.6 or more)

Reference set (10 entries):
# substance, classAssignment
rows = [
    ("VAGWRPFILLGGPRLNTVRQ", "Medium"),
    ("CLIVKRIFFYLNYHKKVELL", "Low"),
    ("VNLFLVMKFK", "High"),
    ("MGVLKWLATRLDWFKKIMCR", "High"),
    ("CLSSSH", "Low"),
    ("SNLVCII", "Medium"),
    ("ANLDQCYIMEWGSTESSKL", "Medium"),
    ("IFHSAVQTNLSGGCRAGVWL", "Medium"),
    ("LPGTSRRASRCLFACYVDMS", "High"),
    ("SRGLNFVIVTFYCDLLQG", "Low"),
]

-- ask Please report the category associated with QLVYCCLLILIYTYEC , nothing else.
-- reply Medium

-- ask Please report the category associated with RNFPWQGFYSTCMMPHF , nothing else.
-- reply High

-- ask Please report the category associated with RVLRIVEAVVVSSCGFVDLR , nothing else.
-- reply High

----------
Experiment: amyloid nucleation score (Sup35N fusion, yeast selection) (log enrichment); library NNK2; higher = more nucleation; inactive = no reads after selection
Reported amyloid nucleation score is given for each of the following substances.
Number only, please.

# substance, amyloid nucleation score
data = [
    ("SMSKYAISYKLVVRKKYRSG", 1.83),
    ("MLARFSSHVPGTDVNPIGRQ", 0.317),
    ("DDYTDTCRCDMFRFSEFLTN", -0.534),
    ("WGDRLSVKFMCVDALGRVNL", 0.019),
    ("VLWNKSALNSKNSRTG", 2.57),
]

-- ask Form field: reported amyloid nucleation score of HRFSLRNHCRSFSSGHLVHN
-- reply -1.24

-- ask Form field: reported amyloid nucleation score of LCCLMDFMITNLITFQRMTS
-- reply 4.33
